Cited source: PubChem BioAssay (EPA / NIEHS)

# Read-out: catalase (CAT), CAT (gene 847)
# procedureSummary: LTEA_HepaRG_CAT: Life Technologies and Expression Analysis (LTEA) Assay for catalase (CAT) using HepaRG (AID 2283452);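 on AC50: TaqMan qRT-PCR signal normalized to ACTB GAPDH and POLR2A housekeeping genes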
# recordedConditions: mRNA level, 48 h; actives raise or lower the signal
The source made the active and inactive calls. How the source made its calls: active means hit-call score of the fitted dose curve at least 0.9, where 1 is the maximum; inactive means score below 0.9.
endpointLabel: AC50

Guide cases for AC50, answers given:
compound	dataValue
COc1cc(Cl)c(OC)cc1Cl	inactive
O=c1n(Cl)c(=O)n(Cl)c(=O)n1Cl	inactive
CNC(=O)N(C)c1nnc(C(C)(C)C)s1	inactive
Cc1nc(N(C)C)nc(OC(=O)N(C)C)c1C	inactive
Cc1cc(C)nc(Nc2ccccc2)n1	inactive
COP(=S)(OC)Oc1ccc([N+](=O)[O-])c(C)c1	inactive

Quick request: AC50 for each listed item, please.
1. Cn1c(-c2ccccc2)cc(-c2ccccc2)[n+]1C
2. O=P(O)(O)CCCl
3. N#CN=C1SCCN1Cc1ccc(Cl)nc1

21.9 µM (active)
inactive
inactive
